The values you see were collected from paper PMC10746280.

Give log10(α2) [95% CI] (log-fold-change in potency of the antibiotic due to the EPM) for every item shown.
System: S. Typhimurium
ASSAY METHOD TEXT: Checkerboard growth assays with antibiotics in LPM 5.5 (FICI and MuSyC analyses)
Type: cell-based
EXPERIMENTAL PARAMETERS: MuSyC fit; Erythromycin

Prompt: GET /values?readout=log10(α2) [95% CI] (log-fold-change in potency of the antibiotic due to the EPM)&item= NC1CCN(CC(O)COc2ccc(Cl)c(Cl)c2)C1 (stereo not shown) [CU032]
Completion: 1.11 [0.98,1.11]

Prompt: Recorded log10(α2) [95% CI] (log-fold-change in potency of the antibiotic due to the EPM) of NC1CCN(CC(O)COc2ccc(Cl)cc2)CC1 (stereo not shown) [CU187] , please.
Completion: 0.93 [0.85,0.96]

Prompt: Return reported log10(α2) [95% CI] (log-fold-change in potency of the antibiotic due to the EPM); argument: OC(COc1ccc(Cl)c(Cl)c1)CN1CCC(Nc2nccc(C(F)(F)F)n2)CC1 (stereo not shown) [EPM35]
Completion: -0.01 [-0.06,0.03]

Prompt: Reported log10(α2) [95% CI] (log-fold-change in potency of the antibiotic due to the EPM) for NC1CCN(CC(O)COc2cccc(C(F)(F)F)c2)CC1 (stereo not shown) [CU232] : what is it?
Completion: 1.38 [1.11,1.44]

###

Tested on: S. Typhimurium
ASSAY METHOD TEXT: Checkerboard growth assays with antibiotics in LPM 5.5 (FICI and MuSyC analyses)
Format: cell-based
EXPERIMENTAL PARAMETERS: MuSyC fit; Ciprofloxacin
Please go through the items and note down their log10(α1) [95% CI] (log-fold-change in potency of EPM due to the antibiotic).

Prompt: Find log10(α1) [95% CI] (log-fold-change in potency of EPM due to the antibiotic) (S. Typhimurium) for the entry NC1CCN(CC(O)COc2ccc(Cl)cc2)CC1 (stereo not shown)
Completion: 0.33 [0.19,0.37]

Prompt: Recall the recorded log10(α1) [95% CI] (log-fold-change in potency of EPM due to the antibiotic) for OC(COc1ccc(Cl)c(Cl)c1)CN1CCC(Nc2nccc(C(F)(F)F)n2)CC1 (stereo not shown) with S. Typhimurium and state it.
Completion: 0.58 [0.17,0.77]

Prompt: State its log10(α1) [95% CI] (log-fold-change in potency of EPM due to the antibiotic) on S. Typhimurium: NC1CCN(CC(O)COc2cccc(C(F)(F)F)c2)CC1 (stereo not shown)
Completion: 0.34 [0.18,0.38]

Prompt: Please tell me: log10(α1) [95% CI] (log-fold-change in potency of EPM due to the antibiotic) of NC1CCN(CC(O)COc2ccc(Cl)c(Cl)c2)C1 (stereo not shown) , system S. Typhimurium?
Completion: 0.0 [-0.42,0.07]

###

Tested on: RAW 264.7 macrophages
ASSAY METHOD TEXT: SAFIRE macrophage assay: host toxicity (adherent macrophage count, morphology)
Format: cell-based
EXPERIMENTAL PARAMETERS: 5 uM
Classification field: enter Y for 5 uM Avg Cell # Score values not below 100, N for values below it.

Prompt: Assess whether reported 5 uM Avg Cell # Score for OC(CNC1(c2ccccc2)CC1)COc1ccc(Cl)c(Cl)c1 (stereo not shown) sits at 100 or higher.
Completion: N

Prompt: Decide: is the reported value of 5 uM Avg Cell # Score for NC1CCN(CC(O)COc2cccc3ccccc23)CC1 (stereo not shown) equal to or greater than 100?
Completion: Y

Prompt: Decide: is the reported value of 5 uM Avg Cell # Score for OC(CNCc1cccc2ccccc12)COc1ccc(Cl)c(Cl)c1 (stereo not shown) equal to or greater than 100?
Completion: N

Prompt: Does OC(COc1ccc(F)cc1)CN1CCC(Nc2nccc(C(F)(F)F)n2)C1 (stereo not shown) have a reported 5 uM Avg Cell # Score of at least 100?
Completion: N

Prompt: Can CNC1CCN(C[C@H](O)COc2ccc(Cl)c(Cl)c2)C1 (stereo partly shown) be said to have 5 uM Avg Cell # Score at or above 100?
Completion: Y

Prompt: Form field: 5 uM Avg Cell # Score at least 100? Entry: OC(COc1ccc2cc[nH]c2c1)CN1CCC(Nc2nccc(C(F)(F)F)n2)CC1 (stereo not shown)
Completion: N
